# measurement-target: rat striatal A2a receptors (Rattus norvegicus)
# test-method-notes: Radioligand binding, [3H]CGS 21680, rat striatal A2a receptors
# Set-up: Rat cerebral cortical membranes and striatal membranes were prepared; from tissue; host or cells: rat striatal membranes
# condition-set: Table I; vs [3H]CGS21680 (5 nM), rat striatal A2 receptors; read-out: Ki (A2a)
recorded-metric: pKi
Numbers only, as −log10 of the molar value.

Examples with answers:
[
  {
    "compound": "COc1ccc(/C=C/c2nc3c([nH]2)c(=O)n(C)c(=O)n3C)c(OC)c1OC [Compound 43a]",
    "pKi": 5.79
  },
  {
    "compound": "COc1cc(/C=C/c2nc3c([nH]2)c(=O)n(C)c(=O)n3C)cc(OC)c1 [Compound 33a]",
    "pKi": 6.92
  },
  {
    "compound": "Cn1c(=O)c2[nH]c(/C=C/c3ccccc3)nc2n(C)c1=O [Compound 15a]",
    "pKi": 6.54
  }
]

Items follow; give pKi for each.
1. Cn1c(=O)c2c(nc(/C=C/c3cccc(I)c3)n2C)n(C)c1=O [Compound 28c]
2. CCn1c(=O)c2[nH]c(/C=C/c3cc(OC)c(OC)c(OC)c3)nc2n(CC)c1=O [Compound 45a]
3. COc1cc(/C=C/c2nc3c(c(=O)n(C)c(=O)n3C)n2C)cc(OC)c1OC/C=C/CNC(=O)OC(C)(C)C [Compound 42]

Result block:
7.41
6.57
6.45

* * *

# measurement-target: A2a receptors, bovine striatum (Bos taurus)
# Sequence (E1BKU0 1-401): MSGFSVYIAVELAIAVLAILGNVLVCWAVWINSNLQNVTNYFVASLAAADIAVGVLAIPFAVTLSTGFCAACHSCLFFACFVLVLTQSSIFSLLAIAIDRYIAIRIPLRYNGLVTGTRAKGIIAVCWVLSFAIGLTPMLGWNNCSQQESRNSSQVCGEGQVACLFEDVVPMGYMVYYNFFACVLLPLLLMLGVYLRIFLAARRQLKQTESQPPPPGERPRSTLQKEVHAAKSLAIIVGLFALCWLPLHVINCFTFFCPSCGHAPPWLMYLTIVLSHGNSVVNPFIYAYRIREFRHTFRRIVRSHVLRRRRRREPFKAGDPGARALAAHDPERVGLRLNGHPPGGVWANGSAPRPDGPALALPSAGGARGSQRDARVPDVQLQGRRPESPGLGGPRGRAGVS
recorded-metric: pIC50
Give bare numbers, as −log10 of the molar value.

Query block: Could you tell me which pIC50 is on file for Cn1c(=O)c2c(nc(/C=C/c3cccc(N=C=S)c3)n2C)n(C)c1=O [Compound 28e] ?
Result block: 6.29

* * *

# measurement-target: rat striatal A2a receptors (Rattus norvegicus, UniProt P30543)
# Sequence (P30543 whole entry): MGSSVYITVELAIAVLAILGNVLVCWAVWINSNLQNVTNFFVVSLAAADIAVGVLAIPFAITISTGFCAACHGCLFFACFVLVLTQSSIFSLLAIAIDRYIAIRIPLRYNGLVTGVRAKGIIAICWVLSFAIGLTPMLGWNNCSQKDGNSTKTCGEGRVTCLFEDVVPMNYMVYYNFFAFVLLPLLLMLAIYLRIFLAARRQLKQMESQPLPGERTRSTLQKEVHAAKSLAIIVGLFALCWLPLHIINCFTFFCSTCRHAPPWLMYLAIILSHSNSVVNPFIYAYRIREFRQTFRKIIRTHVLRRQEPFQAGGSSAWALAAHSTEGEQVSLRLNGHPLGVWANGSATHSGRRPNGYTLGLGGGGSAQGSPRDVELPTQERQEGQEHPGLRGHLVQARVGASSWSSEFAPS
# test-method-notes: Radioligand binding, [3H]CGS 21680, rat striatal A2a receptors
# Set-up: Rat cerebral cortical membranes and striatal membranes were prepared; from tissue; host or cells: rat striatal membranes
# condition-set: Table I; ratio of Ki values
recorded-metric: A1/A2a ratio

Examples with answers:
[
  {
    "compound": "COc1cc(/C=C/c2nc3c(c(=O)n(C)c(=O)n3C)n2C)cc(OC)c1OC/C=C/CNC(C)=O",
    "measurement-target": "rat striatal A2a receptors (Rattus norvegicus, UniProt P30543)",
    "A1/A2a ratio": "> 50"
  },
  {
    "compound": "Cn1c(=O)c2c(nc(/C=C/c3cccc(Br)c3)n2C)n(C)c1=O [Compound 28b]",
    "measurement-target": "rat striatal A2a receptors (Rattus norvegicus, UniProt P30543)",
    "A1/A2a ratio": 120
  },
  {
    "compound": "C#CCn1c(/C=C/c2cc(OC)c(OC)c(OC)c2)nc2c1c(=O)n(C)c(=O)n2C [Compound 44e]",
    "measurement-target": "rat striatal A2a receptors (Rattus norvegicus, UniProt P30543)",
    "A1/A2a ratio": 7.7
  },
  {
    "compound": "Cn1c(=O)c2c(nc(/C=C/c3cccc(C(F)(F)F)c3)n2C)n(C)c1=O [Compound 20b]",
    "measurement-target": "rat striatal A2a receptors (Rattus norvegicus, UniProt P30543)",
    "A1/A2a ratio": 25
  },
  {
    "compound": "Cn1c(=O)c2[nH]c(/C=C/c3cc(F)cc(F)c3)nc2n(C)c1=O [Compound 34a]",
    "measurement-target": "rat striatal A2a receptors (Rattus norvegicus, UniProt P30543)",
    "A1/A2a ratio": 6.4
  }
]

Items follow; give A1/A2a ratio for each.
1. CCCn1c(=O)c2c(nc(/C=C/c3cccc(F)c3)n2C)n(CCC)c1=O [Compound 50b]
2. Cn1c(=O)c2[nH]c(/C=C/c3cccc(F)c3)nc2n(C)c1=O [Compound 27a]

Result block:
1: 9.1; 2: 5.3

Items follow; give A1/A2a ratio for each.
1. Cn1c(=O)c2c(nc(/C=C/c3cccc(F)c3)n2C)n(C)c1=O [Compound 27b]
2. CN(C)c1ccc(/C=C/c2nc3c(c(=O)n(C)c(=O)n3C)n2C)cc1 [Compound 30b]
3. COc1ccccc1/C=C/c1nc2c(c(=O)n(C)c(=O)n2C)n1C [Compound 17b]

Result block:
[190, "> 1", 18]

Items follow; give A1/A2a ratio for each.
1. Cn1c(=O)c2[nH]c(/C=C/c3cccc([N+](=O)[O-])c3)nc2n(C)c1=O [Compound 21a, 1,3-Dimethyl-8-(3-nitrostyryl)xanthine]
2. CCn1c(/C=C/c2cc(OC)c(OC)c(OC)c2)nc2c1c(=O)n(C)c(=O)n2C [Compound 44c]
3. COc1cc(/C=C/c2nc3c([nH]2)c(=O)n(C)c(=O)n3C)cc(OC)c1 [Compound 33a]

Result block:
[2.4, 7.1, 25]

Items follow; give A1/A2a ratio for each.
1. Cn1c(=O)c2[nH]c(/C=C/c3cccc(C(F)(F)F)c3)nc2n(C)c1=O [Compound 20a]
2. COc1cccc(/C=C/c2nc3c(c(=O)n(C)c(=O)n3C)n2C)c1 [Compound 19b]

Result block:
2.6
64
